Target: PDK1 enzyme (Homo sapiens, UniProt O15530)
Sequence (O15530 1-556): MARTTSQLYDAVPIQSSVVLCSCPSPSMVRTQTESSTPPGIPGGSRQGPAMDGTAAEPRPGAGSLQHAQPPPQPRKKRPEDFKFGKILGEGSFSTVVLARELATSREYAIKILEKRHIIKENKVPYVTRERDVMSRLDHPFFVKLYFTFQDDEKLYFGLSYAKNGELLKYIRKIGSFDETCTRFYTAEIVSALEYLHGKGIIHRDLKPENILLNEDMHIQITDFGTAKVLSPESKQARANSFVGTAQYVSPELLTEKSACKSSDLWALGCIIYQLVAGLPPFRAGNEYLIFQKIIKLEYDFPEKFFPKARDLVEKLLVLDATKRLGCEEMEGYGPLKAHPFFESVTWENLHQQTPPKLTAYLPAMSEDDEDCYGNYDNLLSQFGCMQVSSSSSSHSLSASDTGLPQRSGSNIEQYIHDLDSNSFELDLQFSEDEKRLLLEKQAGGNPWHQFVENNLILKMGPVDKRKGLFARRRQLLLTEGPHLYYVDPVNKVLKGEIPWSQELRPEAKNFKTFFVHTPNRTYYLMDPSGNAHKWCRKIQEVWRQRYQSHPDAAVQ
Assay: PDK1 kinase inhibition assay (33P phosphorylation of synthetic peptide, filter plate)
Format: biochemical
Conditions: 0.01 mM ATP, 60 min at 30° C.; read-out: PDK1 IC50
# reported IC50; entries follow

# annotated cases, reported IC50 shown
N[C@H]1CC[C@H](Nc2cc(Nc3ccc(S(=O)(=O)c4ccccc4)cc3)n3ncc(Br)c3n2)CC1 : 1.06 µM
CCN(CC)c1cc(Nc2ccc(S(=O)(=O)N(C)CCO)cc2)n2ncc(C(C)C)c2n1 : > 200 µM
COc1cc(Nc2ccc(S(=O)(=O)N(C)C)cc2)n2ncc(C(C)C)c2n1 : > 200 µM
CC(C)c1cnn2c(Nc3ccc(S(=O)(=O)NCCO)cc3)cc(Cl)nc12 : > 200 µM

Field IC50 (entry CNS(=O)(=O)c1ccc(Nc2cc(N[C@H]3CC[C@H](N)CC3)nc3c(C(C)C)cnn23)cc1 [Example 61] ) reads 11 µM

Field IC50 (entry CC(C)c1cnn2c(Nc3ccc(S(=O)(=O)N(C)C)cc3)cc(C(=O)O)nc12 ) reads > 200 µM

----------
# reported IC50; entries follow
molecular target: PDK1 enzyme (Homo sapiens, UniProt O15530); experiment: PDK1 kinase inhibition assay (33P phosphorylation of synthetic peptide, filter plate); type: biochemical; details: 0.01 mM ATP, 60 min at 30° C.; read-out: PDK1 IC50

O=S(=O)(c1ccc(Nc2cc(N[C@H]3CC[C@H](O)CC3)nc3c(Br)cnn23)cc1)N1CCCC1 : 3.25 µM
CCNC(=O)c1cc(Nc2ccc(S(=O)(=O)N(C)C)cc2)n2ncc(C(C)C)c2n1 : > 200 µM
Cc1cccc(-c2cc(NCc3ccncc3)n3nccc3n2)c1 : > 200 µM

Field IC50 (entry N[C@H]1CC[C@H](Nc2cc(Nc3cccc(Cl)c3)n3ncc(Cl)c3n2)CC1 ) reads 3.24 µM

Field IC50 (entry COc1ccc(CNc2cc(-c3ccsc3)nc3ccnn23)cc1 ) reads > 200 µM

Field IC50 (entry CC(C)COc1cc(Nc2ccc(S(=O)(=O)NCCN(C)C)cc2)n2ncc(C(C)C)c2n1 ) reads > 200 µM

Field IC50 (entry CCOC(=O)c1cc(Nc2ccc(S(=O)(=O)N(C)C)cc2)n2ncc(C(C)C)c2n1 ) reads > 200 µM

Field IC50 (entry NS(=O)(=O)c1ccc(Nc2cc(OC3CCCCC3)nc3ccnn23)cc1 ) reads 70.3 µM
